- assay.system: T1, recombinant human CD47 extracellular domain (ECD), His-tagged, dimer (human, UniProt Q08722 19-141)
- T1 construct: Dimeric fraction of the same His-tagged ECD; also called His-tagged CD47-ECD dimer protein
- assay.info: MSD; CD47-ECD dimer binding to captured SIRP alpha-Fc, mAb 10 µg/ml
Field: % SIRP alpha Inhibition. Provide a value for each of the binders that follow.
Value and unit, in that order.

Short answer for C47B242 (antibody, V domains shown, human IgG2sigma/kappa) VH: EVQLVQSGAEVKKPGESLKISCKGSGYSFTDSWIGWVRQMPGKGLEWMGIIYPGDSDTRYSPSFQGQVTISADKSISTAYLQWSSLKASDTAVYYCARVGRFASHQLDYWGQGTLVTVSS VL: EIVLTQSPATLSLSPGERATLSCRASQSVSNRLAWYQQKPGQAPRLLIYGASNRATGIPARFSGSGSGTDFTLTISSLEPEDFAVYYCQQGRSWPFTFGQGTKVEIK : % SIRP alpha Inhibition was 99.1%

Short answer for C47B237 (antibody, V domains shown, human IgG2sigma/kappa) VH: EVQLVQSGAEVKKPGESLKISCKGSGYSFTSYWIGWVRQMPGKGLEWMGIIYPGDSDTRYSPSFQGQVTISADKSISTAYLQWSSLKASDTAMYYCARVGRFASHQLDYWGQGTLVTVSS VL: EIVLTQSPATLSLSPGERATLSCRASQSVNNRLAWYQQKPGQAPRLLIHWASTRAIGIPARFSGSGSGTDFTLTISSLEPEDFAVYYCQQGASWPFTFGQGTKVEIK : % SIRP alpha Inhibition was 97.9%

Short answer for C47B231 (antibody, V domains shown, human IgG2sigma/kappa) VH: EVQLVQSGAEVKKPGESLKISCKGSGYSFTNYWIGWVRQMPGKGLEWMGIIYPGDSDTRYSPSFQGQVTISADKSISTAYLQWSSLKASDTAVYYCARVGRFASHQLDYWGQGTLVTVSS VL: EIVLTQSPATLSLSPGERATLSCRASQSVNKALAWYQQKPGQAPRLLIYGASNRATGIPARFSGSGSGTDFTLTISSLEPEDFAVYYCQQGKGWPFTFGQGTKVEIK : % SIRP alpha Inhibition was 83.7%

Short answer for C47B214 (antibody, V domains shown, human IgG2sigma/kappa) VH: EVQLVQSGAEVKKPGESLKISCKGSGYSFDDSWIGWVRQMPGKGLEWMGIIYPGDSDTRYSPSFQGQVTISADKSISTAYLQWSSLKASDTAVYYCARVGRFASHQLDYWGQGTLVTVSS VL: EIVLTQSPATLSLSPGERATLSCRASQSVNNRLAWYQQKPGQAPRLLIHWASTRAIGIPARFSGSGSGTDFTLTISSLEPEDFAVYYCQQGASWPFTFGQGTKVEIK : % SIRP alpha Inhibition was 99.7%

Short answer for C47B220 (antibody, V domains shown, human IgG2sigma/kappa) VH: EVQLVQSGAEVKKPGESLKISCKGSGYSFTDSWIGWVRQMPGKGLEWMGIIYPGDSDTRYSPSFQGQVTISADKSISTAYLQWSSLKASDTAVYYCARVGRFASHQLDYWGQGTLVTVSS VL: EIVLTQSPATLSLSPGERATLSCRASQSVSNRQAWYQQKPGQAPRLLIHSASNRATGIPARFSGSGSGTDFTLTISSLEPEDFAVYYCQQGRSWPFTFGQGTKVEIK : % SIRP alpha Inhibition was 98.6%
